Data origin, for the record: patent US4619943A

# assay_name: Acute toxicity (LD50) in mice, procedure of Turner
# Type: in vivo, male Swiss mice
# conditions_used: mouse, in vivo, ip; mice, intraperitoneal, 24 hours
property: LD50 at 24 h (mg/kg)
One number for each entry, in mg/kg.

# input Given COc1ccc(C(O)C(C)Oc2ccc([C@@H]3O[C@@H](c4ccc(OC(C)C(O)c5ccc(OC)c(OC)c5)c(OC)c4)[C@@H](C)[C@@H]3C)cc2OC)cc1OC (stereo partly shown) , respond with its LD50 at 24 h.
# output 5.2
